# key: entry, value: IC50
molecular target: vanilloid receptor (Rattus norvegicus); construct: DRG nerve cells from the primary culture of 2 days were equilibrated; endogenous in cells; test: 45Ca influx test (calcium uptake) in primary cultured DRG neurons, antagonism of capsaicin; conditions: neonatal SD rat DRG nerve cells; capsaicin 0.5 μM; 45Ca 10 μCi/ml; 10 mins room temperature; read-out: Antagonist Calcium Uptake Test (IC50)
Sequence (O35433 whole entry): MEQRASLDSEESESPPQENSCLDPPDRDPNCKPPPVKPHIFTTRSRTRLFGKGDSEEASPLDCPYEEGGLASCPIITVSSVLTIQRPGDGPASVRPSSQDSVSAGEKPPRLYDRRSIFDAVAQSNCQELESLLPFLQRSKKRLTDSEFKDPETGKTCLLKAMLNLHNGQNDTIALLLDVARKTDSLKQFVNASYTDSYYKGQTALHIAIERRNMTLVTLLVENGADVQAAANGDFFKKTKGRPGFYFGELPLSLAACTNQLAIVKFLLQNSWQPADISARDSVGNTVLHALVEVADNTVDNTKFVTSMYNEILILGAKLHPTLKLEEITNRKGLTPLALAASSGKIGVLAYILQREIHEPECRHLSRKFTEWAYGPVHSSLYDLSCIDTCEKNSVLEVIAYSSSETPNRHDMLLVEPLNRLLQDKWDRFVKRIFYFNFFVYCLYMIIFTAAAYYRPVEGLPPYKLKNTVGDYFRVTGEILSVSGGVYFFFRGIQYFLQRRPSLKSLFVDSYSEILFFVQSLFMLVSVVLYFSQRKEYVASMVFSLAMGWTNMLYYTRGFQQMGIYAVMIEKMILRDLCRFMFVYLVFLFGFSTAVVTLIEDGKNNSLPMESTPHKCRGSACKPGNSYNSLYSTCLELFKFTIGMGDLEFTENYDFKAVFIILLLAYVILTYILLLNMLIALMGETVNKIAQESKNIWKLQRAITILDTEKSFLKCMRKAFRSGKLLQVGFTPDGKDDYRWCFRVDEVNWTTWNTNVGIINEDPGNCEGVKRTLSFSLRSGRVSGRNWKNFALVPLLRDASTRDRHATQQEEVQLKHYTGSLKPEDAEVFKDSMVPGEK
The answer should read as a number with its unit following.

Below: 3 molecules and their reported IC50.
[[record]]
chemical_structure = "C=Cc1cc([C@@H](C)NC(=O)/C(C)=C/c2ccc(C(C)(C)C)cc2)ccc1NS(C)(=O)=O"
readout_value = "22 nM"

[[record]]
chemical_structure = "C#Cc1cc([C@@H](C)NC(=O)Nc2ccc(C(C)(C)C)cc2)ccc1NS(C)(=O)=O"
readout_value = "170 nM"

[[record]]
chemical_structure = "C=Cc1cc(CNC(=O)/C(C)=C/c2ccc(C(C)(C)C)cc2)cc(F)c1NS(C)(=O)=O"
readout_value = "49 nM"


# input for lookup
Prompt: Indicate its recorded IC50; the molecule in question is C#Cc1cc(CNC(=O)NCc2ccc(C(C)(C)C)cc2)cc(F)c1NS(C)(=O)=O
Response: 180 nM
